Values were extracted from patent US8557816B2.

Target: AuroraA-TPX2 (Homo sapiens, UniProt O14965)
Construct: 20 μL of AuroraA-TPX2 KD GST for a final volume of about 41 μL; GST
Sequence (O14965 133-383 limits assumed): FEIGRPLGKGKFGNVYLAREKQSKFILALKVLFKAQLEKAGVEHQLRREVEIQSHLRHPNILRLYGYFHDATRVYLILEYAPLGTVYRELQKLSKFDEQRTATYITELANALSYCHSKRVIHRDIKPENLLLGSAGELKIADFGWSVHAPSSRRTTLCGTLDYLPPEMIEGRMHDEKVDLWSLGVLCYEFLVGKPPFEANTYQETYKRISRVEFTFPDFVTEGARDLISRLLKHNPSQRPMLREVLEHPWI
Sequence (Q9ULW0 1-43 partner limits assumed): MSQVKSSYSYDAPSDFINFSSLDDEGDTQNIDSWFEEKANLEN
Experiment: AuroraA-TPX2 Homogeneous Time Resolved Fluorescent (HTRF) kinase assay
Format: biochemical
Settings: average; read-out: AurA_IC50_IP (uM Avg)
RECORDED_ENDPOINT: IC50 (µM)

# count of solved cases: 4
Field request: IC50 | item: Fc1cc(F)c2c(Oc3ccc(Nc4nnc(-c5ccccc5)c5ccccc45)cc3)ccnc2c1 [compound 276]
0.67

Field request: IC50 | item: COc1cnc2c(Oc3ccc(Nc4nnc(-c5ccc(Cl)c(OCCS(C)(=O)=O)c5)c5ccccc45)cc3)ccnc2c1 [Example 394]
0.015

Field request: IC50 | item: COc1ccc2nccc(Sc3ccc(Nc4nnc(-c5cc(C)cs5)c5ccccc45)cc3)c2n1 [compound 549]
0.098

Field request: IC50 | item: Cc1csc(-c2nnc(Nc3ccc(Sc4ccnc5cccnc45)cc3)c3ccccc23)c1 [compound 336]
0.019

(a) COc1cnc2c(Oc3ccc(Nc4nnc(-c5ccccc5)cc4C(C)C)cc3)ccnc2c1 [compound 234]
(b) COc1ccc2ncnc(Oc3ccc(Nc4nnc(-c5cc(C)cs5)c5ccccc45)cc3)c2c1 [compound 565]
(c) COc1cnc2c(Sc3ccc(Nc4nnc(N5CCCC5)c5ccccc45)cc3)ccnc2c1 [compound 521]
(d) COc1cnc2c(Oc3ccc(Nc4nnc(-c5ccc(F)c(OC)c5)c5ccccc45)cc3)ccnc2c1 [compound 180]
Order these by IC50, descending, and give the full ranking. Your reply should list the labels following the order given in the request.
b, a, c, d

(P) COc1cncc(-c2nnc(Nc3ccc(Oc4ccnc5cc(OC)cnc45)cc3)c3ccccc23)c1 [compound 129]
(Q) COc1cnc2c(Sc3ccc(Nc4nnc(N5CCN(S(C)(=O)=O)CC5)c5ccccc45)cc3)ccnc2c1 [compound 605]
(R) COc1cnc2c(Sc3ccc(Nc4nnc(C5CC5)c5ccccc45)cc3)ccnc2c1 [compound 541]
Order these by IC50, descending, and give the full ranking. Your reply should list the labels following the order given in the request.
Q, R, P

(A) Cc1csc(-c2nnc(Nc3ccc(Oc4ncnc5ccccc45)cc3)c3ccccc23)c1 [compound 568]
(B) Clc1ccc(-c2nnc(Nc3ccc(Sc4ccnc5cc[nH]c45)cc3)c3ccccc23)cc1 [compound 463]
Kindly identify which of A and B has the larger recorded IC50 value. Kindly give the label for the entry you pick.
A
